Entries and their kon
# target: T1, PD-L1/Fc (UniProt Q9NZQ7 19-238, limits assumed)
# T1 construct: not shown: Fc part
# T1 sequence (Q9NZQ7 19-238 limits assumed): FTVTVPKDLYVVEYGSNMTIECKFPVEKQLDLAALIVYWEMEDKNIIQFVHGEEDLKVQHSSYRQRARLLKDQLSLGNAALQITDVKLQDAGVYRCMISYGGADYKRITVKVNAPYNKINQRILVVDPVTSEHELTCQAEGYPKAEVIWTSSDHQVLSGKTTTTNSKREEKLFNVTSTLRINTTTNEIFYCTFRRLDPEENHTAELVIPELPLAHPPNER
# assayMethodText: SPR (Biacore 8K), prokaryotically expressed antibody as ligand, PD-L1/Fc as analyte, 1:1 binding model
Numbers only here, please. The scale is M⁻¹ s⁻¹.

As a guide, the following entries are already answered.
{"columns": ["binder", "unitsLabel", "kon"],
 "data": [
  ["AH02033 (prokaryotically expressed antibody product) (Fab, V domains shown) VH: QVQLQESGPGLVKPSQTLSLTCTVTGYSITSGYTWHWIRQHPGKGLEWMGYIHYSGSTKYNPSLKSRFTISRDTSKNQFSLKLSSVTAADTAVYYCARNSLFASWGQGTLVTVSS VL: DIVLTQSPDSLAVSLGERATINCRASESVDTYGDSFMHWFQQKPGQPPKLLIYRASNLESGIPDRFSGSGSGTDFTLTISSLQAEDVAVYYCQQSNEAPYTFGGGTKLEIK", "M⁻¹ s⁻¹", 401000],
  ["AH01946 (prokaryotically expressed antibody product) (Fab, V domains shown) VH: QVQLQESGPGLVKPSQTLSLTCTVSGYSITSGYTWHWIRQHPGKGLEWIGYIHYSGSTKYNPSLKSRVTISRDTSKNQFSLKLSSMTAADTAVYYCARNSLFASWGQGTLVTVSS VL: DIVLTQSPDSLAVSLGERATINCRASESVDTYGDSFMHWFQQKPGQPPKLLIYRASNLESGVPDRFSGSGSGTDFTLTISSVQAEDVAVYYCQQSNEAPYTFGGGTKLEIK", "M⁻¹ s⁻¹", 502000]
]}

Field: next binder
Query (binder): AH02029 (prokaryotically expressed antibody product) (Fab, V domains shown) VH: QVQLQESGPGLVKPSQTLSLTCTVTGYSITSGYTWHWIRQHPGKGLEWIGYIHYSGSTKYNPSLKSRVSISRDTSKNQFSLKLSSVTAADTAVYYCARNSLFASWGQGTLVTVSS VL: DIVLTQSPDSLAVSLGERATINCRASESVDTYGDSFMHWYQQKPGQPPKLLIYRASNLESGVPDRFSGSGSGTDFTLTISSLQAEDVAVYYCQQSNEAPYTFGGGTKLEIK ; field requested: kon 339000
